- Experiment Summary: Metabolic stability in human liver microsomes
- Assay type: in vitro ADME
- Condition Context: human, human liver microsomes, pH 7.4; in vitro t1/2 from linear regression of ln % parent remaining vs incubation time; NC = not calculable due to <20% metabolism in HLM; read-out: t1/2 (min) Ave ± SD
Readout Type: half-life
Could you give the number and then its unit, please?

Per the record, CC(C)(O)c1ccc2c(c1)ncn2-c1cccc(-c2ccccc2C#N)c1 has half-life of 95 min

Reference source for all entries: patent US8278460B2
